System: HH MRSA 714 (dfrG)
Method: MIC against clinical isolate HH MRSA 714
Assay type: cell-based
Cond: Staphylococcus aureus
Readout Kind: MIC (µg/mL)
One number for each entry, in µg/mL.

Exam item: Could you tell me which MIC is on file for CCc1nc(N)nc(N)c1C#C[C@@H](C)c1cc2c(c(-c3ccc(C(=O)O)cc3)c1)OCO2 ?
Marked response: 0.625

Further cases:
Exam item: Could you tell me which MIC is on file for CCc1nc(N)nc(N)c1C#C[C@H](C)c1cc2c(c(-c3ccc(C(=O)O)cc3)c1)OCO2 ?
Marked response: 2.5

###

Hi there, I'd appreciate the recorded MIC for every entry that follows.
Test system: UCH MRSA 1 (dfrG)
Method: MIC against clinical isolate UCH MRSA 1
Format: cell-based, Staphylococcus aureus
Cond: Staphylococcus aureus, MRSA
Numbers only, in µg/mL.

Exam item: Could you tell me which MIC is on file for CCc1nc(N)nc(N)c1C#C[C@H](C)c1cc2c(c(-c3ccc(C(=O)O)cc3)c1)OCO2 ?
Marked response: 2.5

Let's switch to this molecule now.
Exam item: Could you tell me which MIC is on file for CCc1nc(N)nc(N)c1C#C[C@@H](C)c1cc2c(c(-c3ccc(C(=O)O)cc3)c1)OCO2 ?
Marked response: 0.625
